Origin of the recorded values: paper PMC9967275

biological target: cruzain (Trypanosoma cruzi, UniProt P25779); assay: biochemical; details: 0’ (pre-incubation time); sheet "Screening results"
Sequence (P25779 123-337 limits assumed): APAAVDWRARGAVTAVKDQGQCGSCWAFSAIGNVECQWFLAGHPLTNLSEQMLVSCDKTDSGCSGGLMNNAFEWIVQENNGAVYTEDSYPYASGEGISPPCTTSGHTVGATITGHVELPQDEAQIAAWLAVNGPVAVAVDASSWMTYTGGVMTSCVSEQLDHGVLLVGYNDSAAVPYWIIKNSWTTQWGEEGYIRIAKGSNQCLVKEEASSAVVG
Quantity kind: Cruzain 0’ Inhibition (%)

1) CCNC(=O)C(C)Nc1nc(-c2cccnc2)nc2sc(C)c(C)c12 (centres unmarked) = -0.8
2) CCc1nc2ccc(C(=O)NCc3ccc4c(c3)OCO4)cn2c1N(C)Cc1cccs1 = -4
3) CC(C)NCC(=O)Nc1cccc(C(=O)Nc2cccc(C(F)(F)F)c2)c1 = -1.7
4) Cc1ccc2[nH]c(C3CCCNC3)c(-c3ccncc3)c2c1 (centres unmarked) = -7.4
5) COc1ccc2nccc(NC(=O)C3CCN(CCc4ccc(Cl)cc4)CC3)c2n1 = 1.4

* * *

target: TbrCatL (Trypanosoma brucei rhodesiense); construct: Conor Caffrey (University of California San Diego); test: TbrCatL enzymatic inhibition assay (cleavage of fluorogenic substrate Z-FR-AMC); assay type: biochemical; details: 0’ (no pre-incubation); sheet Screening results;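 also: at 5 µM compound concentration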
Sequence (Q95PM0 entry or part of it): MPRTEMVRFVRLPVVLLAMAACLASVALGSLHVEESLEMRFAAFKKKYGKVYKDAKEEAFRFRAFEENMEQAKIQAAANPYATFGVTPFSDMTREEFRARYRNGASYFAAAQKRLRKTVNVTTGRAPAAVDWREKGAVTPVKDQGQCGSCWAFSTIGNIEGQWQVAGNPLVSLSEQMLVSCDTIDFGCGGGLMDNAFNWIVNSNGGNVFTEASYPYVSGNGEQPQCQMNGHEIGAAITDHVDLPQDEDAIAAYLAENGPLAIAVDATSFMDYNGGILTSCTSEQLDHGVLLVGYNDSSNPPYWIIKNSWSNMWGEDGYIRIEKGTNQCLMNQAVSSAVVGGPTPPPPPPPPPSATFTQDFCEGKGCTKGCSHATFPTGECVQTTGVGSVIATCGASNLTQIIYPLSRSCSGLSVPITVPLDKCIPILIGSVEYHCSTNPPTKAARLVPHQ
Catalogue of TbrCatL Inhibition 0’ readings, one per entry.
Quantity kind: TbrCatL Inhibition 0’ (%)

1) Cn1ncc2c(N3CCOCC3)nc(NCCc3c[nH]c4ccccc34)nc21 = 4.7
2) CCN(CC)S(=O)(=O)c1ccc(Cl)c(C(=O)Nc2ccc3nc(C)sc3c2)c1 = 5
3) Cc1[nH]c2ccccc2c1C(c1cccs1)N1CCN(C)CC1 (centres unmarked) = 0.9
4) CCOc1ccc2cc(-c3nn(C(C)(C)C)c(N)c3C(N)=O)cnc2c1 = 7
5) CC(C)(C)C(O)C(Oc1ccc(-c2ccccc2)cc1)n1cncn1 (centres unmarked) = 13
6) O=C(Nc1nnc(-c2ccc(Cl)cc2)o1)c1cccc(C(F)(F)F)c1 = 0.5
7) Cc1ccc2c(c1C)NC(=O)C21NN=C(c2ccccc2)S1 (centres unmarked) = -21
8) COC(=O)Nc1nc2ccc(C(=O)c3ccccc3)cc2[nH]1 = 4.7
9) N#Cc1nc(-c2ccccc2)oc1S(=O)(=O)c1ccc(Cl)cc1 = 5.5
10) COc1nc2ccc(Br)cc2cc1[C@@H](c1ccccc1)[C@@](O)(CCN(C)C)c1cccc2ccccc12 = 9
11) Cc1cc(C(=O)Nc2ccc(-c3ccccc3)cc2)no1 = -2
12) CN1CCN(c2cc(-c3ccc(F)cc3)nc(-c3ccncc3)n2)CC1 = 19
13) CC(C)(C)OC(=O)N1CCN(c2nccc(-c3ccc(-c4ccc(Cl)cc4)s3)n2)CC1 = 22
14) CCOC(=O)c1cc(-c2csc(Nc3c(C)cc(C)cc3C)n2)on1 = 6
15) Cc1ccccc1CN1CCC(O)(c2ccc(Cl)c(C(F)(F)F)c2)CC1 = 2.5
16) O=C(NC1CC1)c1ccc(N2CCOc3ccc(Cl)cc32)s1 = 8
17) CCN(CC)S(=O)(=O)c1ccc(C(=O)Nc2cc(C)nn2-c2nc(C)c(C)c(=O)[nH]2)cc1 = -23
18) CN(C)c1cc(NC(=O)Nc2ccccc2)c2ccccc2n1 = 9
19) Cc1cc(C)n2nc(C(=O)Nc3cc(C(F)(F)F)ccc3N3CCOCC3)nc2n1 = 4.3
20) COC(=O)C1=C(C)NC(C)=C(C(=O)OC(C)C)[C@H]1c1cccc2nonc12 = 1.3
21) O=C(Nc1nnc(-c2ccc(Cl)s2)o1)c1ccc(Cl)s1 = -3.6
22) CC(C)(C)n1nc(-c2ccccc2)c2c(N)ncnc21 = 20
23) CO[C@@H](C(=O)N1Cc2[nH]nc(NC(=O)c3ccc(N4CCN(C)CC4)cc3)c2C1)c1ccccc1 = 7.5
24) CC(C)n1ncc2c(C(=O)NCC(c3cccs3)N3CCOCC3)cc(-c3ccccc3)nc21 (centres unmarked) = 17
25) Cc1ccc2oc(-c3cc(NC(=O)Cc4ccccc4)ccc3Cl)nc2c1 = 11
26) COc1ccc(C2CC(c3cccs3)=NN2C(=O)c2ccco2)cc1OC (centres unmarked) = 7
27) c1csc(-c2cnc3sc(NCC4CCOCC4)nn23)c1 = 14
28) CC(=O)NC[C@@H]1CN(c2ccc(N3CCOCC3)c(F)c2)C(=O)O1 = 3.8
29) NC(=O)c1cc(Br)ccc1OCCOc1ccccc1 = -2.4
30) Cc1cc(C)cc(COc2ccc3c(C)c(CCC(=O)O)c(=O)oc3c2C)c1 = -17
31) O=C(Nc1cccnc1)c1c(O)c2cccc3c2n(c1=O)CC3 = 17
32) O=C1N(Cc2cc3ccccc3s2)CC2CN(Cc3ccccc3)CCN12 (centres unmarked) = 18
33) CC[C@H](CO)NCCN[C@H](CC)CO = 7
34) CCCn1c(CNc2ccccc2O)nc2ccccc21 = 6
35) CCC(=O)Nc1ccccc1C(=O)Nc1ccccn1 = 15
36) N=C(N)c1ccc(OCCCCCOc2ccc(C(=N)N)cc2)cc1 = 3
37) O=C(NCc1ccoc1)N1CCN(Cc2ccc3c(c2)OCO3)CC1 = -1.2
38) COc1cc2ncnc(NC3CCN(Cc4ccccc4)CC3)c2cc1OC = 15
